As a worked illustration, we turn to pIC50 data collected for α-glucosidase from Saccharomyces cerevisiae (Saccharomyces cerevisiae, UniProt P53341).
One number for each entry, as −log10 of the molar value.

Below are worked cases with known answers.
COc1cc(-c2ccccc2)c(OC)c(O)c1-c1ccc(O)c(O)c1 [Compound 9, 4″-deoxy-3-hydroxyterphenyllin]    3.33
COc1c(-c2ccccc2)cc(OC)c2c1oc1cc(O)c(O)cc12    3.89
COc1cc(-c2ccc(O)cc2)c(OC)c(O)c1-c1ccc(O)c(O)c1 [Compound 6, 3-hydroxyterphyllin]    4.96
COc1cc(-c2ccc(O)c(O)c2)c(OC)c(O)c1-c1ccc(O)c(O)c1 [Compound 7, 3,3″-dihydroxyterphyllin]    4.74
COc1cc(-c2ccc(O)c(CC=C(C)C)c2)c(OC)c(O)c1-c1ccc(O)c(O)c1    4.19

# evaluate next
Entry COc1cc(-c2ccc(O)cc2)c(O)c(O)c1-c1ccc(O)cc1 , pIC50 reported as 5.23
